condition_summary: 298.15 K; 93.2 kPa; Liquid; Vibrating tube method
Catalogue of mass density readings, one per entry.
Give just the numeric value; kg/m3 need not be written.

CCCNCCC: 733.64
CCCCN: 732.33
CC#N: 776.61

(Q) Given the compound CCCN , what is its reported mass density?
(A) 711.21

(Q) Given the compound CC(C)(C)N , what is its reported mass density?
(A) 686.65

(Q) Given the compound CCCCNCCCC , what is its reported mass density?
(A) 755.61

(Q) Given the compound CCN(CC)CC , what is its reported mass density?
(A) 723.02

###

condition_summary: 308.15 K; 93.2 kPa; Liquid; Vibrating tube method
Threshold rule: mass density greater than or equal to 700 kg/m3 is t; below that, f.

(Q) Does CCCCNCCCC have a reported mass density of at least 700 kg/m3?
(A) t

(Q) Does CC#N have a reported mass density of at least 700 kg/m3?
(A) t

(Q) Does CCCCN have a reported mass density of at least 700 kg/m3?
(A) t

(Q) Does CCCNCCC have a reported mass density of at least 700 kg/m3?
(A) t

(Q) Does CC(C)(C)N have a reported mass density of at least 700 kg/m3?
(A) f
